Recorded CSF concentration, one value per entry.
assay: Concentration of BRAF/MEK inhibitors in patient CSF by LC-MS/MS; type: in vivo, human; conditions: day 5 after treatment initiation; CSF via EVD

{"smiles_str": "CC(C)(C)c1nc(-c2cccc(NS(=O)(=O)c3c(F)cccc3F)c2F)c(-c2ccnc(N)n2)s1", "measure_unit": "ng/mL", "CSF concentration": 5.4}
{"smiles_str": "Cn1cnc2c(F)c(Nc3ccc(Br)cc3F)c(C(=O)NOCCO)cc21", "measure_unit": "ng/mL", "CSF concentration": 10.3}
{"smiles_str": "CC(=O)Nc1cccc(-n2c(=O)n(C3CC3)c(=O)c3c(Nc4ccc(I)cc4F)n(C)c(=O)c(C)c32)c1", "measure_unit": "ng/mL", "CSF concentration": 0.0}
{"smiles_str": "COC(=O)N[C@@H](C)CNc1nccc(-c2cn(C(C)C)nc2-c2cc(Cl)cc(NS(C)(=O)=O)c2F)n1", "measure_unit": "ng/mL", "CSF concentration": 2.4}
